tested-target: T1, EsCas13d, nuclease-dead (Eubacterium siraeum, UniProt B0MS50, R295A;H300A;R849A;H854A)
T1 sequence: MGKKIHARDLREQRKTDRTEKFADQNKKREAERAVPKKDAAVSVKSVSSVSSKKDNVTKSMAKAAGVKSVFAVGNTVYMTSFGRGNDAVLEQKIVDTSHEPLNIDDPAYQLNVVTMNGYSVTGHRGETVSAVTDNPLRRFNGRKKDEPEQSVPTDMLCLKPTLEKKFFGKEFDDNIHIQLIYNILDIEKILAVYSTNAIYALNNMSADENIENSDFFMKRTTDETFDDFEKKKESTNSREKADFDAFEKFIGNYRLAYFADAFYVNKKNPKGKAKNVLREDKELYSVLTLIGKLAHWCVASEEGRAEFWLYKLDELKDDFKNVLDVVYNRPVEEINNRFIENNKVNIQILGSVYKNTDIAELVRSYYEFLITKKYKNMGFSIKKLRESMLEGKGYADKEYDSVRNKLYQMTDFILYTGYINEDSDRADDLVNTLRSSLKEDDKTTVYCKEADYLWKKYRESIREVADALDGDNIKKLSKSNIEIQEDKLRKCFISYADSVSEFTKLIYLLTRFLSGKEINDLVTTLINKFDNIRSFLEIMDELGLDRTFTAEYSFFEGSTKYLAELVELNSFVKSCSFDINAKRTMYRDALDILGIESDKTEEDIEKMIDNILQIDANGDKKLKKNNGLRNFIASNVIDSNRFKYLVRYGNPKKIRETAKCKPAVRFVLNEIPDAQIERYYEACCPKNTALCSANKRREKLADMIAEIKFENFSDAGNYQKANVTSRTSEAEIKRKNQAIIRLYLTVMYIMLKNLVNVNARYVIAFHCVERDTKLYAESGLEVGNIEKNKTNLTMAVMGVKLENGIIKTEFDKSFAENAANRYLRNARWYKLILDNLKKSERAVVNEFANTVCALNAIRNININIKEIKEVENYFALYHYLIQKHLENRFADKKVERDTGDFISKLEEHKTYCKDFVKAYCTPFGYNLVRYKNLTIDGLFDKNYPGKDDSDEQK
experiment: crRNA (strand 1, pre-loaded); Mg2+; 40 mM Tris-HCl pH 7.5, 150 mM NaCl, 6 mM MgCl2, 1 mM DTT, 0.1% Tween-20, 0.2 mg/ml BSA; 25 C; 10 min per concentration, then washed
stated-conditions: tags: His6-TwinStrep-SUMO cleaved; N-terminal SNAP kept (SNAP-Surface 488); label: 3' end held by stalled T7 RNA polymerase
property: Kd (nM)

[[record]]
binder = "target 1 C6G,U19A (mixed) RNA 1: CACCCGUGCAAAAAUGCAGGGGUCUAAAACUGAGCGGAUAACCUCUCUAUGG RNA 2: GGGAAUGGAUCCACAUCUACGAAUUCGUACCAAAGAGAGGUUAUCGGCUCACCGAGAUCGGAAGAGCACACGU"
result_value = 35

